target: Lysine-specific demethylase 4A (Homo sapiens); experiment: qHTS Assay for Inhibitors of JMJD2A-Tudor Domain; conditions: AlphaScreen JMJD2A-Tudor / H3K4me3 peptide binding; series mostly up to 114 µM; note: nearly all actives have a fitted effect of over 50% in size
The whole screen tested about 390,000 compounds, of which about 17,000 (4.4%) were called active. Not shown: some 8% with an inconclusive outcome. Calls come from the whole dose curve; as a rule, active = well fitted inhibition curve with a large enough effect; inconclusive = small, poorly fitted or top-dose-only effect; inactive = no such curve, though single readings can be large or run the other way. This is one part of a sample in which actives are shown more often than they occur.
Classes used: active, inactive

>>> print(df.to_string())
                                   compound                       experimental_target     group
0  COc1ccc(-c2cc(C3CCN(c4ncccc4[N+](=O)[O-])CC3)[nH]n2)cc1  Lysine-specific demethylase 4A (Homo sapiens)    active
1  Cc1noc(C)c1-c1ccc2ncnc(NCc3ccc(F)c(F)c3)c2c1  Lysine-specific demethylase 4A (Homo sapiens)  inactive
2  COc1cc(C(CC(=O)NCCC(C)C)N2Cc3ccccc3C2=O)cc(OC)c1OC (configuration not stated)  Lysine-specific demethylase 4A (Homo sapiens)  inactive
3  Cc1c(Cl)cccc1NC(=O)Cn1cc(C(=O)c2cccs2)c2ccccc21  Lysine-specific demethylase 4A (Homo sapiens)  inactive
4    Cc1c(C)n2c(SCC(=O)N3CCCC3)nnc2[nH]c1=O  Lysine-specific demethylase 4A (Homo sapiens)  inactive
5  Cc1nc(CNc2ncnc3ccc(-c4ccc5c(c4)OCO5)cc23)cs1  Lysine-specific demethylase 4A (Homo sapiens)    active
6  CC(=O)c1nn(-c2ccc(OC(F)(F)F)cc2)nc1Nc1ccccc1  Lysine-specific demethylase 4A (Homo sapiens)  inactive
